All figures here come from patent US6172085A.

Provide the recorded IC50 for the entries that follow.
Tested on: sodium channel
Assay type: binding, Wistar rats
experimentalConditions: rat cerebral cortex membrane, 5 nM [^3 H]batracotoxinin A20-α-benzoate, 1 μM tetrodotoxin, 100 μg/mL scorpion toxin, 37° C., 1 hour
Where a name gives a salt, the structure may show the parent alone.

Some molecules with known IC50 results, for comparison:
Cc1c(C)c2c(c(C)c1N)CC(C)(CN1CCN(Cc3ccc4c(c3)OCO4)CC1)O2 (stereo not shown) [Example 4, trihydrochloride]: 280 nM
Cc1c(C)c2c(c(C)c1N)CC(C)(CN1CCC(CCCCc3ccccc3)CC1)O2 (stereo not shown): 260 nM

Give IC50 for each of the items listed below.
1. Cc1c(C)c2c(c(C)c1N)CC(C)(CN1CCC(CCNC(c3ccccc3)c3ccccc3)CC1)O2 (stereo not shown) [Example 41, trihydrochloride]
2. CCNc1c(C)c(C)c2c(c1C)CC(C)(CN1CCC(c3ccccc3)CC1)O2 (stereo not shown) [Reference Example 8]

Response given:
["140 nM", "640 nM"]
